Would you kindly list Particle diameter of Preparation obtained for each of these molecules?
- EXPERIMENT DESCRIPTION: Average particle diameter of preparation (Zetasizer Nano ZS)
- Type: physicochemical
- SETTINGS: preparation with f7 siRNA; compound/PEG-DMPE Na/DSPC/cholesterol; Examples 50, 51 / Comparative Example 2
Report only the number, with the unit nm understood.

[in] Look up Particle diameter of Preparation obtained for this molecule: CCCCC/C=C\C/C=C\CCCCCCCCN(CCCCCCCC/C=C\C/C=C\CCCCC)C(=O)OCC1CCCN1C (stereo not shown)
[out] 141.0

[in] Which value of Particle diameter of Preparation obtained has been reported for "CCCCC/C=C\C/C=C\CCCCCCCCN(CCCO)CCCCCCCC/C=C\C/C=C\CCCCC" in the records?
[out] 124.3

[in] Item "CCCCC/C=C\C/C=C\CCCCCCCCN(CCCCCCCCCC)C(=O)OCCCN(C)C" has what recorded Particle diameter of Preparation obtained?
[out] 148.7

[in] For the molecule CCCCC/C=C\C/C=C\CCCCCCCCOCCN(CCCCCCCC/C=C\C/C=C\CCCCC)C(=O)OCCC1CCCN1C (stereo not shown) , what Particle diameter of Preparation obtained is on record?
[out] 130.4

---

- EXPERIMENT DESCRIPTION: Average particle diameter of preparation (Zetasizer Nano ZS)
- Assay type: physicochemical
- SETTINGS: preparation with f7 siRNA; compound/PEG-DMPE Na/DSPC/cholesterol; Examples 50, 51 / Comparative Example 2
Would you kindly list Particle diameter of Preparation obtained for each of these compounds?
Unit nm implied. Number only.

[in] Give the measured Particle diameter of Preparation obtained of CCCCC/C=C\C/C=C\CCCCCCCCN(CCCCCCCC/C=C\C/C=C\CCCCC)C(=O)OCC1CCCN(C)C1 (centres unmarked) [Compound A-15] .
[out] 124.0

[in] May I ask what Particle diameter of Preparation obtained has been recorded for CCCCC/C=C\C/C=C\CCCCCCCCOCCN(CCOCCCCCCCC/C=C\C/C=C\CCCCC)C(=O)OCCCN(C)C [Compound XI-5, reference compound] ?
[out] 114.1

[in] Entry CCCCC/C=C\C/C=C\CCCCCCCCOCCN(CCCCCCCC/C=C\C/C=C\CCCCC)C(=O)OCCCN1CCCCC1 [Compound A-29] : reported Particle diameter of Preparation obtained = ?
[out] 130.6

[in] Quick one: Particle diameter of Preparation obtained of CCCCC/C=C\C/C=C\CCCCCCCCN(CCO)CCCCCCCC/C=C\C/C=C\CCCCC [Compound C-4] ?
[out] 137.3

[in] So what's the measured Particle diameter of Preparation obtained for this one? CCCCC/C=C\C/C=C\CCCCCCCCN(CCOCCCCCCCC/C=C\CCCCCCCC)C(=O)OCCC1CCCN1C (centres unmarked) [Compound A-34]
[out] 140.2

[in] Reported Particle diameter of Preparation obtained, compound CCCCC/C=C\C/C=C\CCCCCCCCCCN(CCCCCCCCCC/C=C\C/C=C\CCCCC)C(=O)OCC1CCCN(C)C1 (centres unmarked) [Compound A-20] : ____
[out] 145.1

[in] Name the reported Particle diameter of Preparation obtained value associated with the compound CCCCCCCC/C=C\CCCCCCCCN(CCCCCCCC/C=C\CCCCCCCC)C(=O)OCC1CCCN(C)C1 (centres unmarked) [Compound A-18]
[out] 138.4

[in] Query: Particle diameter of Preparation obtained; subject: CCCCC/C=C\C/C=C\CCCCCCCCN(CCCCCCCC/C=C\C/C=C\CCCCC)CC(O)CO (centres unmarked) [Compound XI-7, reference compound]
[out] 142.8

[in] Give its Particle diameter of Preparation obtained value. Item: CCCCC/C=C\C/C=C\CCCCCCCCN(CCCCO)CCCCCCCC/C=C\C/C=C\CCCCC [Compound C-5]
[out] 134.9

[in] Using the record for CCCCC/C=C\C/C=C\CCCCCCCCN(CCOCCCCCCCC/C=C\CCCCCCCC)C(=O)OCCCN(C)C [Compound A-35] , report its Particle diameter of Preparation obtained.
[out] 137.8

[in] Return reported Particle diameter of Preparation obtained; argument: CCCCC/C=C\C/C=C\CCCCCCCCN(CCCCCCCC/C=C\C/C=C\CCCCC)C(=O)OCCCN1CCCCCCC1 [Compound A-28]
[out] 132.0

[in] What value of Particle diameter of Preparation obtained has been reported for the following compound? CCCCC/C=C\C/C=C\CCCCCCCCO[C@@H]1CN(CCCO)C[C@H]1OCCCCCCCC/C=C\C/C=C\CCCCC [Compound XI-8, reference compound]
[out] 128.0

[in] Returns the measured Particle diameter of Preparation obtained for the input compound. Input: CCCCC/C=C\C/C=C\CCCCCCCCN(CCCCCCCC/C=C\C/C=C\CCCCC)C(=O)OCC1CCN(C)CC1 [Compound A-14]
[out] 134.4

[in] Fill blank: measured Particle diameter of Preparation obtained of the compound CCCCCCCC/C=C\CCCCCCCCN(CCCO)CCCCCCCC/C=C\CCCCCCCC [Compound C-2] is ____.
[out] 125.4

[in] I have this compound here, CCCCC/C=C\C/C=C\CCCCCCCCN(CCCCCCCC/C=C\C/C=C\CCCCC)C(=O)OCC1CCCCN1C (centres unmarked) [Compound A-16] , and I need its recorded Particle diameter of Preparation obtained.
[out] 133.4

[in] I would be grateful if you could share the reported Particle diameter of Preparation obtained for CCCCC/C=C\C/C=C\CCCCCCCCN(CCOCCCCCCCC/C=C\CCCCCC)C(=O)OCCCN(C)C [Compound A-36] .
[out] 126.5

[in] // lookup Particle diameter of Preparation obtained for CCCCCCCC/C=C\CCCCCCCCN(CCCCCCCC/C=C\CCCCCCCC)C(=O)OCCC1CCCN1C (centres unmarked) [Compound A-17]
[out] 129.1

[in] Item CCCCC/C=C\C/C=C\CCCCCCCCCCN(CCCO)CCCCCCCCCC/C=C\C/C=C\CCCCC [Compound C-3] has what recorded Particle diameter of Preparation obtained?
[out] 138.4

[in] Requested read-out: Particle diameter of Preparation obtained. Entry: CCCCC/C=C\C/C=C\CCCCCCCCOCCN(CCCCCCCC/C=C\C/C=C\CCCCC)C(=O)OCC1CCCN(C)C1 (centres unmarked) [Compound A-32]
[out] 124.6

[in] Recorded Particle diameter of Preparation obtained for CCCCC/C=C\C/C=C\CCCCCCCCOCCN(CCCCCCCC/C=C\C/C=C\CCCCC)C(=O)OCCCN1CCCCCC1 [Compound A-31] , please?
[out] 139.1

---

- EXPERIMENT DESCRIPTION: Average particle diameter of preparation (Zetasizer Nano ZS)
- Format: physicochemical
- SETTINGS: preparation with f7 siRNA; liposome/siRNA complex encapsulated by lipid membrane; Examples 52, 53 / Comparative Example 3
Everything with Particle diameter of Preparation obtained lower than 100 nm is F; everything else, including exactly 100 nm, is T.

[in] Decide: Particle diameter of Preparation obtained of CCCCC/C=C\C/C=C\CCCCCCCCN(CCCCCCCC/C=C\C/C=C\CCCCC)C(=O)OCCN(C)C [Compound A-5] >= 100 nm?
[out] F

[in] Check if Particle diameter of Preparation obtained >= 100 nm (inclusive). Item: CCCCC/C=C\C/C=C\CCCCCCCCN(CCOCCCCCCCC/C=C\CCCCCCCC)C(=O)OCCC1CCCN1C (centres unmarked) [Compound A-34]
[out] F

[in] Dear colleague, could you confirm whether CCCCC/C=C\C/C=C\CCCCCCCCN(CCCCCCCC/C=C\C/C=C\CCCCC)C(=O)OCCCN1CCCCCCC1 [Compound A-28] has Particle diameter of Preparation obtained at or above 100 nm?
[out] T

[in] Reported Particle diameter of Preparation obtained reaches at least 100 nm for CCCCC/C=C\C/C=C\CCCCCCCCOCC(CN(C)C(=O)OCCCN(C)C)OCCCCCCCC/C=C\C/C=C\CCCCC (centres unmarked) [Compound XI-9, reference compound] ?
[out] T

[in] Entry CCCCC/C=C\C/C=C\CCCCCCCCOCCN(CCCCCCCC/C=C\C/C=C\CCCCC)C(=O)OCCC1CCCN1C (centres unmarked) [Compound A-30] : is its Particle diameter of Preparation obtained no less than 100 nm?
[out] T

[in] Answer whether Particle diameter of Preparation obtained of CCCCC/C=C\C/C=C\CCCCCCCCN(CCOCCCCCCCC/C=C\CCCCCCCC)C(=O)OCCCN(C)C [Compound A-35] is greater than or equal to 100 nm.
[out] T

[in] Form field: Particle diameter of Preparation obtained at least 100 nm? Entry: CCCCC/C=C\C/C=C\CCCCCCCCCCN(CCCCCCCCCC/C=C\C/C=C\CCCCC)C(=O)OCC1CCCN(C)C1 (centres unmarked) [Compound A-20]
[out] F

[in] Item CCCCC/C=C\C/C=C\CCCCCCCCN(CCOCCCCCCCC/C=C\CCCCCC)C(=O)OCCCN(C)C [Compound A-36] with Particle diameter of Preparation obtained of 100 nm or above?
[out] T

[in] Reported Particle diameter of Preparation obtained reaches at least 100 nm for CCCCC/C=C\C/C=C\CCCCCCCCN(CCCCCCCC/C=C\C/C=C\CCCCC)C(=O)OCCC1CCCN1C (centres unmarked) [Compound A-6] ?
[out] F

[in] Could you please find out whether CCCCC/C=C\C/C=C\CCCCCCCCN(CCCCCCCC/C=C\C/C=C\CCCCC)C(=O)OCC1CCCCN1C (centres unmarked) [Compound A-16] has Particle diameter of Preparation obtained that meets 100 nm or exceeds it?
[out] T

[in] Reported Particle diameter of Preparation obtained at or above 100 nm? CCCCC/C=C\C/C=C\CCCCCCCCN(CCCCCCCC/C=C\C/C=C\CCCCC)C(=O)OCCCCN(C)C [Compound A-13]
[out] T

// provenance: patent US10342758B2
